target: GnRHR (Homo sapiens, UniProt P30968); settings: 1000.0
Sequence (P30968 whole entry): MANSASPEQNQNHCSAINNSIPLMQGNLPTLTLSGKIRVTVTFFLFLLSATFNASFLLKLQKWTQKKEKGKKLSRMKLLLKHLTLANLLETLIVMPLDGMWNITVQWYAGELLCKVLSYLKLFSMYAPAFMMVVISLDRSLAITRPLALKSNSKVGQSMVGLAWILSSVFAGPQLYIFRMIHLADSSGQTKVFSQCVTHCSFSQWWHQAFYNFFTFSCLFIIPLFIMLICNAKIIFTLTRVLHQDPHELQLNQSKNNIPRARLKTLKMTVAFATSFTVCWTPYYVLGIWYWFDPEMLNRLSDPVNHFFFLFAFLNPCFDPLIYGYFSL
Square brackets hold non-standard residues; d marks the D form. Peptide text beside a SMILES is read from it. * marks the point of attachment. dHis(τ-Bn) = N[C@H](Cc1cn(Cc2ccccc2)cn1)C(=O)O; d2Nal = N[C@H](Cc1ccc2ccccc2c1)C(=O)O; pGlu = O=C1CC[C@@H](C(=O)O)N1; tBu = CC(C)(C)*
# label = label 1 if GNRHR Stimulation at 1 μM >= 100 percentage else label 0

# molecule, group.label
rows = [
    ("N=C(N)NCCC[C@H](NC(=O)[C@H](Cc1c[nH]c2ccccc12)NC(=O)[C@@H](Cc1ccc2ccccc2c1)NC(=O)[C@H](Cc1c[nH]cn1)NC(=O)[C@H](CO)NC(=O)[C@H](Cc1c[nH]c2ccccc12)NC(=O)[C@H](Cc1c[nH]cn1)NC(=O)[C@@H]1CCC(=O)N1)C(=O)N1CCC[C@H]1C(=O)NCC(N)=O [Compound 27] ([pGlu]HWSH[d2Nal]WRPG-NH2)", "label 1"),
    ("CCNC(=O)[C@@H]1CCCN1C(=O)[C@H](Cc1ccc(O)cc1)NC(=O)[C@H](Cc1c[nH]c2ccccc12)NC(=O)[C@@H](COC(C)(C)C)NC(=O)[C@H](Cc1c[nH]cn1)NC(=O)[C@H](CO)NC(=O)[C@H](Cc1c[nH]c2ccccc12)NC(=O)[C@H](Cc1c[nH]cn1)NC(=O)[C@@H]1CCC(=O)N1 [Compound 13] ([pGlu]HWSH[dS](tBu)WYP-NHEt)", "label 0"),
    ("CCNC(=O)[C@@H]1CCCN1C(=O)[C@H](CCCNC(=N)N)NC(=O)[C@H](Cc1c[nH]c2ccccc12)NC(=O)[C@@H](COC(C)(C)C)NC(=O)[C@H](Cc1c[nH]cn1)NC(=O)[C@H](CO)NC(=O)[C@H](Cc1c[nH]c2ccccc12)NC(=O)[C@H](Cc1c[nH]cn1)NC(=O)[C@@H]1CCC(=O)N1 [Compound 10] ([pGlu]HWSH[dS](tBu)WRP-NHEt)", "label 0"),
    ("CCNC(=O)[C@@H]1CCCN1C(=O)[C@H](Cc1ccc(O)cc1)NC(=O)[C@H](CC(C)C)NC(=O)[C@@H](Cc1cn(Cc2ccccc2)cn1)NC(=O)[C@H](Cc1c[nH]cn1)NC(=O)[C@H](CO)NC(=O)[C@H](Cc1c[nH]c2ccccc12)NC(=O)[C@H](Cc1c[nH]cn1)NC(=O)[C@@H]1CCC(=O)N1 [Compound 61] ([pGlu]HWSH[dHis(τ-Bn)]LYP-NHEt)", "label 1"),
    ("CCNC(=O)[C@@H]1CCCN1C(=O)[C@H](CCCNC(=N)N)NC(=O)[C@H](Cc1c[nH]c2ccccc12)NC(=O)[C@@H](CC(C)C)NC(=O)[C@H](Cc1ccc(O)cc1)NC(=O)[C@H](CO)NC(=O)[C@H](Cc1c[nH]c2ccccc12)NC(=O)[C@H](Cc1c[nH]cn1)NC(=O)[C@@H]1CCC(=O)N1 [Compound 44] ([pGlu]HWSY[dL]WRP-NHEt)", "label 1"),
]

* * *

Assay: Solubility analysis in PBS (Analysis Method B)
Type: physicochemical
Conditions: pH 7.4
Procedure: The solubility of compounds of the invention was tested as described in the general methods. Solubility was then graded according to a rating between 1 to 5, where 1 is most soluble and 5 is least soluble.
Square brackets hold non-standard residues; d marks the D form. Peptide text beside a SMILES is read from it. dHis(τ-Bn) = N[C@H](Cc1cn(Cc2ccccc2)cn1)C(=O)O; d2Nal = N[C@H](Cc1ccc2ccccc2c1)C(=O)O; pGlu = O=C1CC[C@@H](C(=O)O)N1

# molecule, Solubility grading
records = [
    ("CCNC(=O)[C@@H]1CCCN1C(=O)[C@H](Cc1ccc(O)cc1)NC(=O)[C@H](Cc1c[nH]c2ccccc12)NC(=O)[C@@H](Cc1cn(Cc2ccccc2)cn1)NC(=O)[C@H](Cc1c[nH]cn1)NC(=O)[C@H](CO)NC(=O)[C@H](Cc1c[nH]c2ccccc12)NC(=O)[C@H](Cc1c[nH]cn1)NC(=O)[C@@H]1CCC(=O)N1 [Compound 63] ([pGlu]HWSH[dHis(τ-Bn)]WYP-NHEt)", 5),
    ("N=C(N)NCCC[C@H](NC(=O)[C@H](Cc1c[nH]c2ccccc12)NC(=O)[C@@H](Cc1c[nH]c2ccccc12)NC(=O)[C@H](Cc1c[nH]cn1)NC(=O)[C@H](CO)NC(=O)[C@H](Cc1c[nH]c2ccccc12)NC(=O)[C@H](Cc1c[nH]cn1)NC(=O)[C@@H]1CCC(=O)N1)C(=O)N1CCC[C@H]1C(=O)NCC(N)=O", 3),
    ("N=C(N)NCCC[C@H](NC(=O)[C@H](Cc1c[nH]c2ccccc12)NC(=O)[C@@H](Cc1ccc2ccccc2c1)NC(=O)[C@H](Cc1ccc(O)cc1)NC(=O)[C@H](CO)NC(=O)[C@H](Cc1c[nH]c2ccccc12)NC(=O)[C@H](Cc1c[nH]cn1)NC(=O)[C@@H]1CCC(=O)N1)C(=O)N1CCC[C@H]1C(=O)NCC(N)=O [Compound 24] ([pGlu]HWSY[d2Nal]WRPG-NH2)", 5),
]

* * *

# Solubility grading listing for each entry below
test: Solubility analysis in PBS (Analysis Method B); format: physicochemical; settings: pH 7.4
Square brackets hold non-standard residues; d marks the D form. Peptide text beside a SMILES is read from it. pGlu = O=C1CC[C@@H](C(=O)O)N1

# molecule, Solubility grading
data = [
    ("CCNC(=O)[C@@H]1CCCN1C(=O)[C@H](CCCNC(=N)N)NC(=O)[C@H](CC(C)C)NC(=O)[C@@H](CC(C)C)NC(=O)[C@H](Cc1ccc(O)cc1)NC(=O)[C@H](CO)NC(=O)[C@H](Cc1c[nH]c2ccccc12)NC(=O)[C@H](Cc1c[nH]cn1)NC(=O)[C@@H]1CCC(=O)N1 [Leuprorelin acetate, leuprorelin, reference compound]", 2),
    ("NC(=O)CNC(=O)[C@@H]1CCCN1C(=O)[C@H](Cc1ccc(O)cc1)NC(=O)[C@H](Cc1c[nH]c2ccccc12)NC(=O)[C@@H](Cc1c[nH]c2ccccc12)NC(=O)[C@H](Cc1ccc(O)cc1)NC(=O)[C@H](CO)NC(=O)[C@H](Cc1c[nH]c2ccccc12)NC(=O)[C@H](Cc1c[nH]cn1)NC(=O)[C@@H]1CCC(=O)N1 [Compound 64] ([pGlu]HWSY[dW]WYPG-NH2)", 5),
    ("CC(C)C[C@H](NC(=O)[C@@H](Cc1ccc2ccccc2c1)NC(=O)[C@H](Cc1ccc(O)cc1)NC(=O)[C@H](CO)NC(=O)[C@H](Cc1c[nH]c2ccccc12)NC(=O)[C@H](Cc1c[nH]cn1)NC(=O)[C@@H]1CCC(=O)N1)C(=O)N[C@@H](CCCNC(=N)N)C(=O)N1CCC[C@H]1C(=O)NCC(N)=O [Naferelin acetate, nafarelin, reference compound]", 2),
]

* * *

assay: Solubility analysis in PBS (Analysis Method B); type: physicochemical; settings: pH 7.4
Square brackets hold non-standard residues; d marks the D form. Peptide text beside a SMILES is read from it. * marks the point of attachment. d2Nal = N[C@H](Cc1ccc2ccccc2c1)C(=O)O; pGlu = O=C1CC[C@@H](C(=O)O)N1; tBu = CC(C)(C)*
# Solubility grading listing for each entry below
parameter: Solubility grading

# compound, value
records = [
    ("CC(C)C[C@H](NC(=O)[C@@H](Cc1c[nH]c2ccccc12)NC(=O)[C@H](Cc1ccc(O)cc1)NC(=O)[C@H](CO)NC(=O)[C@H](Cc1c[nH]c2ccccc12)NC(=O)[C@H](Cc1c[nH]cn1)NC(=O)[C@@H]1CCC(=O)N1)C(=O)N[C@@H](Cc1ccc(O)cc1)C(=O)N1CCC[C@H]1C(=O)NCC(N)=O [Compound 14] ([pGlu]HWSY[dW]LYPG-NH2)", 4),
    ("CCNC(=O)[C@@H]1CCCN1C(=O)[C@H](Cc1ccc(O)cc1)NC(=O)[C@H](CC(C)C)NC(=O)[C@@H](COC(C)(C)C)NC(=O)[C@H](Cc1c[nH]cn1)NC(=O)[C@H](CO)NC(=O)[C@H](Cc1c[nH]c2ccccc12)NC(=O)[C@H](Cc1c[nH]cn1)NC(=O)[C@@H]1CCC(=O)N1 [Compound 11] ([pGlu]HWSH[dS](tBu)LYP-NHEt)", 1),
    ("CCNC(=O)[C@@H]1CCCN1C(=O)[C@H](Cc1ccc(O)cc1)NC(=O)[C@H](Cc1c[nH]c2ccccc12)NC(=O)[C@@H](COC(C)(C)C)NC(=O)[C@H](Cc1ccc(O)cc1)NC(=O)[C@H](CO)NC(=O)[C@H](Cc1c[nH]c2ccccc12)NC(=O)[C@H](Cc1c[nH]cn1)NC(=O)[C@@H]1CCC(=O)N1 [Compound 12] ([pGlu]HWSY[dS](tBu)WYP-NHEt)", 4),
    ("CCNC(=O)[C@@H]1CCCN1C(=O)[C@H](CCCNC(=N)N)NC(=O)[C@H](CC(C)C)NC(=O)[C@@H](COC(C)(C)C)NC(=O)[C@H](Cc1c[nH]cn1)NC(=O)[C@H](CO)NC(=O)[C@H](Cc1c[nH]c2ccccc12)NC(=O)[C@H](Cc1c[nH]cn1)NC(=O)[C@@H]1CCC(=O)N1 [Compound 6] ([pGlu]HWSH[dS](tBu)LRP-NHEt)", 1),
    ("CCNC(=O)[C@@H]1CCCN1C(=O)[C@H](CCCNC(=N)N)NC(=O)[C@H](Cc1c[nH]c2ccccc12)NC(=O)[C@@H](COC(C)(C)C)NC(=O)[C@H](Cc1ccc(O)cc1)NC(=O)[C@H](CO)NC(=O)[C@H](Cc1c[nH]c2ccccc12)NC(=O)[C@H](Cc1c[nH]cn1)NC(=O)[C@@H]1CCC(=O)N1 [Compound 8] ([pGlu]HWSY[dS](tBu)WRP-NHEt)", 2),
    ("CC(C)C[C@H](NC(=O)[C@@H](Cc1ccc2ccccc2c1)NC(=O)[C@H](Cc1ccc(O)cc1)NC(=O)[C@H](CO)NC(=O)[C@H](Cc1c[nH]c2ccccc12)NC(=O)[C@H](Cc1c[nH]cn1)NC(=O)[C@@H]1CCC(=O)N1)C(=O)N[C@@H](Cc1ccc(O)cc1)C(=O)N1CCC[C@H]1C(=O)NCC(N)=O [Compound 25] ([pGlu]HWSY[d2Nal]LYPG-NH2)", 4),
]
